Molecular target: T1, 4H3926-bH
T1 chain: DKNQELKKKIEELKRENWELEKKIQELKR
Assay: two-hybrid library CCNG1;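 further: natural log of median RNA to DNA barcode read ratio; higher means stronger binding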
Everything with interaction score lower than 0.8 is n; everything else, including exactly 0.8, is y.

Completed entries (count: 5):
# Binder, Group label
data = [
    ("DKIQELKKKNEELKREIWELEKEIQELKR [4H3010-bH]", "n"),
    ("DEIQELEKKIEELKRENWELKKEIQELKR [4H346-bH]", "y"),
    ("DKNQELEKENEELKRKIWELEKEIQELKR [4H3298-bH]", "n"),
    ("DKIQELKKEIEELERENWELKKEIQELKR [4H2586-bH]", "y"),
    ("DKNQELKKEIEELERENWELKKKIQELER [4H3613-bH]", "y"),
]

Q: In plain terms: is recorded interaction score at least 0.8 for DKNQELEKEIEELKRENWELKKEIQELKR [4H3162-bH] ?
Result: y

Q: # bool: interaction score of DEIQELEKENEELERKIWELKKEIQELKR [4H170-bH] >= 0.8
Result: n

Q: Confirm if interaction score reported for the binder DENQELKKKIEELKRKIWELKKENQELER [4H1899-bH] is 0.8 or above.
Result: n

Q: Reported interaction score reaches at least 0.8 for DENQELKKKIEELERKIWELEKKNQELER [4H1831-bH] ?
Result: n

Q: Is it the case that DKIAQLKQEIAELKQKIAELKWENAQLEQ [4H2667-bA] has interaction score reaching or exceeding 0.8?
Result: n

Q: In plain terms: is recorded interaction score at least 0.8 for DKNQELEKEIEELKRKIWELEKKNQELER [4H3175-bH] ?
Result: n

Q: Textbook exercise: given the entry DENQELKKKNEELKREIWELEKEIQELER [4H1985-bH] , state whether its interaction score is greater than or equal to 0.8.
Result: n

Q: Check if interaction score >= 0.8 (inclusive). Item: DKIQELKKEIEELKRKNWELEKEIQELER [4H2673-bH]
Result: n
